# Tested on: Escherichia coli
# PROCEDURE_TEXT: Antimicrobial activity against Escherichia coli RCMB 010052 after 24 hrs by serial dilution method
# Format: functional
# APPLIED_CONDITIONS: RCMB 010052, 24 h
VALUE_TYPE: MIC (µg/mL)
Give bare numbers, in µg/mL.

Here are 2 compounds together with their reported answers.
Cc1nc(-c2ccc(Cl)cc2)ccc1C(=O)N/N=C/c1ccc(Cl)cc1Cl: 1.95
O=C(N/N=C/c1ccc(F)cc1)c1c[nH]c2ccc(Cl)cc2c1=O: 62.5

Proceeding to the next compound to report its MIC.
Look up MIC for this compound: COc1ccc(/C=N/NC(=O)c2c[nH]c3cc(Cl)ccc3c2=O)cc1OC 3.9
